Where these numbers come from: patent US20100311714A1

# TARGET OR SYSTEM: PI3K alfa (Homo sapiens, UniProt P42336)
# Construct: His tag (C); made in house; host or cells: baculovirus BV1075; Tn5 (Trichoplusia ni) or TiniPro insect cells
# Sequence (P42336 with tags, fused parts or gaps limits assumed): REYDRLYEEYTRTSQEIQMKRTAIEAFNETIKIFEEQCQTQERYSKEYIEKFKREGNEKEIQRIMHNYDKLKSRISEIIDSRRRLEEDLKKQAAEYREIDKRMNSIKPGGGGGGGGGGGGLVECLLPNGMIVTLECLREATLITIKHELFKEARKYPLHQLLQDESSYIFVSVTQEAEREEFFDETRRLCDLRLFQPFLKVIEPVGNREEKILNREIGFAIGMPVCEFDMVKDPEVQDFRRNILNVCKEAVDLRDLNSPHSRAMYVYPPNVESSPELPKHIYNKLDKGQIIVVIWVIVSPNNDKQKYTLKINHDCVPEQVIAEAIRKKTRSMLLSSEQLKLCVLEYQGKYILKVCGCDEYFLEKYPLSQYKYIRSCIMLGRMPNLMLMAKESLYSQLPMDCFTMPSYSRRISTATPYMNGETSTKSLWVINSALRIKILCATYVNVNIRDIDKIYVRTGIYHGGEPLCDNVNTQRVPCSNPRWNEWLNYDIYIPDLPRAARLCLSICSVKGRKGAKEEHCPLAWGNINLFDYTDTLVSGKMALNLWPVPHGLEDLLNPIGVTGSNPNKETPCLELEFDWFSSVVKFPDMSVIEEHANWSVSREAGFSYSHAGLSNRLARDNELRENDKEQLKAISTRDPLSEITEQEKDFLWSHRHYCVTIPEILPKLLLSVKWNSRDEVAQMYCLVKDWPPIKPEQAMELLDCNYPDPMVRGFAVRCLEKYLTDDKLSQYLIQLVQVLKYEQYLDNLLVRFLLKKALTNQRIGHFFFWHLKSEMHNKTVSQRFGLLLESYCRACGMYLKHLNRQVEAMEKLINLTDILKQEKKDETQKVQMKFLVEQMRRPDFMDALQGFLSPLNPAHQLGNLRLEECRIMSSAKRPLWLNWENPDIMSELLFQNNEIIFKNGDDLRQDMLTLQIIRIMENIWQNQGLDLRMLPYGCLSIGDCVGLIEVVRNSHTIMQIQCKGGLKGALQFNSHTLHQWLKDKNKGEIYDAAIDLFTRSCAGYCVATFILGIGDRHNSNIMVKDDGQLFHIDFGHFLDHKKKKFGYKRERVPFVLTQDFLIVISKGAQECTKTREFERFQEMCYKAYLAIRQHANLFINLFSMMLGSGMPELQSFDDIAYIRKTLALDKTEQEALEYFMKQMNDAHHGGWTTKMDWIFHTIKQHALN
# ASSAY NAME: PI3K alpha kinase assay (Kinase-Glo luminescence)
# Type: biochemical
# CONDITION NOTES: read-out: PI3Kalfa/IC50
PARAMETER: IC50 (nM)
# unit: nM | format: bare number

Recorded result, COc1ncccc1-n1c(=O)n(C)c2cnc3ccc(-c4ccc(F)nc4)cc3c21 , IC50: 58

Recorded result, CCOc1ccc(-c2ccc3ncc4c(c3c2)n(-c2ccc(F)nc2C)c(=O)n4C)cn1 , IC50: 67

Recorded result, COc1ccc(-c2ccc3ncc4c(c3c2)n(-c2cccnc2)c(=O)n4C)cn1 , IC50: 19

Recorded result, Cc1ncccc1-n1c(=O)n(C)c2cnc3ccc(-c4cnc(N)c(C(F)(F)F)c4)cc3c21 , IC50: 7

Recorded result, Cc1ncccc1-n1c(=O)n(C)c2cnc3ccc(-c4cnc5c(ccn5C)c4)cc3c21 , IC50: 34

Recorded result, COc1ccc(-c2ccc3ncc4c(c3c2)n(-c2cccnc2C)c(=O)n4C)cn1 , IC50: 26

Recorded result, Cn1c(=O)n(-c2cccnc2F)c2c3cc(-c4cnc(N)c(C(F)(F)F)c4)ccc3ncc21 , IC50: 9

Recorded result, CNc1ccc(-c2ccc3ncc4c(c3c2)n(-c2ccc(F)nc2C)c(=O)n4C)cn1 , IC50: 27
